The measured values listed here are drawn from ChEMBL document CHEMBL3352523.

Test system: HeLa
Assay: Antiproliferative activity against human HeLa cells assessed as growth inhibition after 48 hrs by SRB assay
Format: functional
parameter-measured: GI50 (nM)

{"columns": ["compound", "result-units", "value"],
 "data": [
  ["COC(=O)[C@H]1C(c2nc3ccc(OC)cc3[nH]2)=Cc2cc3c(cc2[C@H]1c1cc(OC)c(OC)c(OC)c1)OCO3", "nM", 1040],
  ["COC(=O)[C@H]1C(c2nc3ccc(C(F)(F)F)cc3[nH]2)=Cc2cc3c(cc2[C@H]1c1cc(OC)c(OC)c(OC)c1)OCO3", "nM", 5080],
  ["COc1cc([C@@H]2c3cc4c(cc3[C@@H](O[C@@H]3O[C@@H]5CO[C@@H](C)O[C@H]5[C@H](O)[C@H]3O)[C@H]3COC(=O)[C@H]23)OCO4)cc(OC)c1O [ETOPOSIDE]", "nM", 620],
  ["COC(=O)[C@H]1C(c2nc3cc(C(F)(F)F)cc(Br)c3[nH]2)=Cc2cc3c(cc2[C@H]1c1cc(OC)c(OC)c(OC)c1)OCO3", "nM", 6400],
  ["COC(=O)[C@H]1C(c2nc3ccc(Br)cc3[nH]2)=Cc2cc3c(cc2[C@H]1c1cc(OC)c(OC)c(OC)c1)OCO3", "nM", 210],
  ["COC(=O)[C@H]1C(c2nc3ccc(Cl)cc3[nH]2)=Cc2cc3c(cc2[C@H]1c1cc(OC)c(OC)c(OC)c1)OCO3", "nM", 2160],
  ["COC(=O)[C@H]1C(C=O)=Cc2cc3c(cc2[C@H]1c1cc(OC)c(OC)c(OC)c1)OCO3", "nM", 690],
  ["COC(=O)Nc1nc2cc(C(=O)c3cccs3)ccc2[nH]1 [NOCODAZOLE]", "nM", 810],
  ["COC(=O)[C@H]1C(c2nc3ccccc3[nH]2)=Cc2cc3c(cc2[C@H]1c1cc(OC)c(OC)c(OC)c1)OCO3", "nM", 200],
  ["COC(=O)[C@H]1C(c2nc3cc(Cl)c(Cl)cc3[nH]2)=Cc2cc3c(cc2[C@H]1c1cc(OC)c(OC)c(OC)c1)OCO3", "nM", 19700],
  ["COC(=O)[C@H]1C(c2nc3cc(C)c(C)cc3[nH]2)=Cc2cc3c(cc2[C@H]1c1cc(OC)c(OC)c(OC)c1)OCO3", "nM", 3600],
  ["COC(=O)[C@H]1C(c2nc3ccc(F)c(Cl)c3[nH]2)=Cc2cc3c(cc2[C@H]1c1cc(OC)c(OC)c(OC)c1)OCO3", "nM", 24200],
  ["COC(=O)[C@H]1C(c2nc3cc4ccccc4cc3[nH]2)=Cc2cc3c(cc2[C@H]1c1cc(OC)c(OC)c(OC)c1)OCO3", "nM", 3800],
  ["COc1cc([C@@H]2c3cc4c(cc3[C@H](O)[C@H]3COC(=O)[C@H]23)OCO4)cc(OC)c1OC [PODOFILOX]", "nM", 740],
  ["COC(=O)[C@H]1C(c2nc3ccc(F)cc3[nH]2)=Cc2cc3c(cc2[C@H]1c1cc(OC)c(OC)c(OC)c1)OCO3", "nM", 4300],
  ["COC(=O)[C@H]1C(c2nc3ccc(C)cc3[nH]2)=Cc2cc3c(cc2[C@H]1c1cc(OC)c(OC)c(OC)c1)OCO3", "nM", 2800]
]}
